# key: entry, value: AST in Sera (IU/L) 2 hours After 0.5 MPK Injection
Tested on: Aspartate Aminotransferase (AST)
Test: Liver enzyme elevation in serum, AST
Type: in vivo
Details: cirRNA (SEQ ID NO: 1) LNPs; BALB/C mice; intravenous 0.5 MPK; 2 hours
// return numeric value only (unit: IU/L, not printed)

>>> obs_value("CCCCC/C=C\\C/C=C\\CCCCCCCCN(CCCCCCCC(=O)OC(CCCCCCCC)CCCCCCCC)CCCOC(=O)NCc1ncc[nH]1")
200.67

input: // query AST in Sera (IU/L) 2 hours After 0.5 MPK Injection value for entry CCCCC/C=C\C/C=C\CCCCCCCCN(CCCCCC(=O)OCC(CCCCCCCC)CCCCCCCCCC)CCOC(=O)NCCN(C)C (stereo not drawn)
output: 279.87

input: Repeat for the following compound: CCCCCCCCC(CCCCCC)C(=O)OCCCCCCCCN(CCCCCCCCOC(=O)C(CCCCCC)CCCCCCCC)CCCOC(=O)NCc1ncc[nH]1 (stereo not drawn)
output: 292.00
